Consider the following variants; for each one, report its protein stability index.
B1: RIPK4 (parent)
chain: VSVNAQTLDGRTPLHLAAQRGHYR

# Variants of: B1
# ASSAY_OVERVIEW: protein stability index of a GFP-peptide fusion (GPS, HEK-293T) (PSI 1-6); higher = more stable;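 further: lentivirally expressed fusions sorted by FACS into six bins by GFP to DsRed ratio, PSI derived from sequencing read proportions per bin multiplied by bin number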
# REPORTED_CONDITIONS: c terminus: a fixed tail appended
Number only, no unit.

[ask] So what's the measured protein stability index for this one? P13Q
[reply] 3.15

[ask] Given Q6C , state its recorded protein stability index.
[reply] 2.62

[ask] # query: protein stability index of entry A5M
[reply] 2.77

[ask] Query: protein stability index; subject: L8D
[reply] 3.74

[ask] I would be grateful if you could share the reported protein stability index for T7Y .
[reply] 2.97

[ask] Recorded protein stability index for V1T , please?
[reply] 3.78

[ask] Consider the variant shown here: Q6E What is its recorded protein stability index?
[reply] 2.95

[ask] Which protein stability index value is on record for V3Y ?
[reply] 2.75

[ask] protein stability index lookup needed for R24F , thanks.
[reply] 2.41

[ask] Would you kindly share the measured protein stability index for Y23T ?
[reply] 4.12

[ask] So what's the measured protein stability index for this one? R24H
[reply] 2.69

Reference source: the supplement of paper PMC10567573
